experiment: qHTS assay to identify small molecule antagonists of the androgen receptor (AR) signaling pathway using the MDA cell line - cell viability counter screen (AID 743041; also: nearly all actives have a fitted effect of over 45% in size); details: MDA-kb2 viability, CellTiter-Fluor, 16 h, cells co-treated with R1881 androgen agonist; series mostly up to 70.3 µM
Inconclusive results are not listed. Active and inactive are the calls of the source. Calls follow the shape of the dose curve; as a rule, active = well fitted cell-killing curve with a large enough effect in the repeat runs; inconclusive = weak or mixed curves, or effect the other way; inactive = flat fitted curve, though single readings scatter.
Please state which outcome applies, choosing from y = active, n = inactive

Consider the following illustrative entries.
CCC(=O)OCC(=O)[C@@]1(OC(=O)CC)[C@@H](C)C[C@H]2[C@@H]3CCC4=CC(=O)C=C[C@]4(C)[C@@]3(Cl)[C@@H](O)C[C@@]21C | n
O=C1NCCN1c1ncc([N+](=O)[O-])s1 | n
CCOC(=O)CN[C@@H](C(=O)N1CC[C@H]1C(=O)NCc1ccc(/C(N)=N/O)cc1)C1CCCCC1 | n
CCN(CC)c1ccc(N=Nc2ccc(S(=O)(=O)N(C)C)cc2)c(S(=O)(=O)NCC[n+]2ccccc2)c1 | n
CN[C@@H]1[C@@H](O)[C@@H](O[C@@H]2[C@@H](O)[C@H](O[C@H]3O[C@H](CN)[C@@H](O)[C@H](O)[C@H]3O)[C@@H](N)C[C@H]2NC(=O)C(O)CN)OC[C@]1(C)O (stereo partly drawn) | n
CCN(CC)CCOC(=O)c1ccc(N)cc1Cl | n
Cc1cc(/C=C/c2ccc3cc(N(C)C)ccc3[n+]2C)c(C)n1-c1ccccc1 | y
O=C(NOC[C@H](O)CO)c1ccc(F)c(F)c1Nc1ccc(I)cc1F | n
CCCCCCCCCCCCCCCCCCCCCC(=O)Nc1ccn([C@@H]2O[C@H](CO)[C@@H](O)[C@@H]2O)c(=O)n1 | n
CCC(Cc1c(I)cc(I)c(O)c1I)C(=O)O (stereo not drawn) | n

Recorded test outcome, item CCCC(=O)O[C@]1(C(=O)COC(C)=O)CC[C@H]2[C@@H]3C[C@H](F)C4=CC(=O)C=C[C@]4(C)[C@@]3(F)[C@@H](O)C[C@@]21C
n

Query: recorded result category for OCCO[C@@H]1[C@@H](O)[C@H](O)[C@@H](CO)O[C@@H]1O in this test
n

====

experiment: qHTS assay for identifying genotoxic compounds that show differential cytotoxicity against isogenic chicken DT40 cell lines with known DNA damage response pathways - Rev3 mutant cell line (AID 743014); settings: chicken DT40 Rev3-/- viability, CellTiter-Glo, 40 h; series mostly up to 68.4 µM; also: nearly all actives have a fitted effect of over 55% in size
Inconclusive results are not listed. Active and inactive are the calls of the source. Calls follow the shape of the dose curve; as a rule, active = well fitted cell-killing curve with a large enough effect in the repeat runs; inconclusive = weak or mixed curves, or effect the other way; inactive = no such curve, though single readings can be large or run the other way.
Permitted responses: active, inactive

Worked set:
CN1c2cc(O)c(N=NC(N)=O)cc2CC1S(=O)(=O)O (stereo not given) | inactive
CCC(CN)CC(C)CCNCC(O)CNCC(C)CC(CC)CN (stereo not given) | inactive
Cc1cc2nc3c(=O)[nH]c(=O)nc-3n(C[C@H](O)[C@H](O)[C@H](O)COP(=O)(O)OP(=O)(O)OC[C@H]3O[C@@H](n4cnc5c(N)ncnc54)[C@H](O)[C@@H]3O)c2cc1C | inactive
CC(=O)N=c1sc(S(N)(=O)=O)nn1C | inactive

How was COc1ccc(C2(C#N)CCC(C(=O)O)CC2)cc1OC1CCCC1 (stereo not given) classified in this test?
inactive

For Cn1c(=O)c2c(ncn2CCOC(=O)C(C)(C)Oc2ccc(Cl)cc2)n(C)c1=O , what call appears in the results of this test?
inactive

====

experiment: qHTS assay to identify small molecule antagonists of the androgen receptor (AR) signaling pathway using the MDA cell line - cell viability counter screen (AID 743041); settings: MDA-kb2 viability, CellTiter-Fluor, 16 h, cells co-treated with R1881 androgen agonist; series mostly up to 70.3 µM
Results filed as inconclusive are left out. The source made the active and inactive calls. Calls follow the shape of the dose curve; as a rule, active = well fitted cell-killing curve with a large enough effect in the repeat runs; inconclusive = weak or mixed curves, or effect the other way; inactive = flat fitted curve, though single readings scatter.
// allowed return values: active, inactive

Worked examples follow.
CC(C)[C@@H]1CC[C@@H](C)C[C@H]1OC(=O)c1ccccc1O | inactive
Cc1cc(-c2ccc(N=Nc3c(S(=O)(=O)O)cc4cc(S(=O)(=O)O)cc(N)c4c3O)c(C)c2)ccc1N=Nc1c(S(=O)(=O)O)cc2cc(S(=O)(=O)O)cc(N)c2c1O | active
O=C1CSC2(CCN(CCCN3c4ccccc4Sc4ccc(Cl)cc43)CC2)N1 | inactive

Now consider the entry below.
Just curious, what result did CC(C)(CO)[C@@H](O)C(=O)NCCC(=O)NCCSSCCNC(=O)CCNC(=O)[C@H](O)C(C)(C)CO get here?
inactive

====

test: qHTS assay to identify small molecule antagonists of the thyroid receptor (TR) signaling pathway (AID 743065); settings: GH3.TRE-Luc, T3-stimulated luciferase inhibition, 23.5 h; series mostly up to 70.3 µM; also: nearly all actives have a fitted effect of over 55% in size
Results filed as inconclusive are left out. The source made the active and inactive calls. Calls come from the whole dose curve; as a rule, active = well fitted inhibition curve with a large enough effect in the repeat runs; inconclusive = weak or mixed curves; inactive = no such curve, though single readings can be large or run the other way.
In this exercise, the only acceptable responses are 1.0 for active, 0.0 for inactive

CC(=O)OC[C@H]1O[C@@H](O[C@H]2[C@H](O)[C@@H](OC(=O)c3ccccc3C(=O)O)[C@H](O)O[C@@H]2COC(C)=O)[C@H](O)[C@@H](OC(=O)c2ccccc2C(=O)O)[C@@H]1O | 0.0
Nc1ncnc(Nc2ccc(Cl)cc2)n1 | 0.0
CCN(CC)CCOc1ccccc1OC | 0.0

Called result for O=C1c2ccccc2C(=O)C1c1ccc(Cl)cc1
0.0

Could you please tell me the result logged for CCCCCc1ccc(C)cc1O in this assay?
1.0

====

assay: qHTS assay for small molecules that induce genotoxicity in human embryonic kidney cells expressing luciferase-tagged ATAD5 (AID 651632); settings: HEK293T ATAD5-luciferase induction, 16 h; series mostly up to 83.3 µM; also: nearly all actives have a fitted effect of over 15% in size
Records with an inconclusive call do not appear. The source made the active and inactive calls. Calls follow the shape of the dose curve; as a rule, active = well fitted activation curve with a large enough effect in the repeat runs; inconclusive = weak or mixed curves; inactive = no such curve, though single readings can be large or run the other way.
The categories you may choose from are YES = active, NO = inactive

C=CC[C@@H]1/C=C(\C)C[C@H](C)C[C@H](OC)[C@H]2O[C@@](O)(C(=O)C(=O)N3CCCC[C@H]3C(=O)O[C@H](/C(C)=C/[C@@H]3CC[C@@H](O)[C@H](OC)C3)[C@H](C)[C@@H](O)CC1=O)[C@H](C)C[C@@H]2OC | NO
C#C[C@]1(O)CC[C@H]2[C@@H]3CCC4=CCCC[C@@H]4[C@H]3C(=C)C[C@@]21CC | NO
COC1=C(C(=O)O)N2C(=O)[C@@H](NC(=O)[C@H](N)C3=CCC=CC3)[C@H]2SC1 | NO
CC(=O)Nc1ccc(OC(=O)c2ccccc2O)cc1 | NO
COc1cc(Br)c(C[N+]2(CCOCCC3CCC4CC3C4(C)C)CCOCC2)cc1OC (configuration not stated) | NO

Could you please tell me the result logged for CCOC(=O)c1cc(-c2ccccc2)nc2ccc(C)cc12 in this assay?
NO

Entry CC1(C)S[C@@H]2[C@H](NC(=O)C(N)c3ccccc3)C(=O)N2[C@H]1C(=O)OC1OC(=O)c2ccccc21 (some centres not stated) : call = ?
NO

Field: outcome | Entry: CCCC(=O)N1CCCN(c2nc(N)c3cc(OC)c(OC)cc3n2)CC1
NO

====

test: qHTS assay to test for compound auto fluorescence at 590 nm (red) in HepG2 cells (AID 720674); details: HepG2 autofluorescence, red 540/590 nm, 1 h; series mostly up to 46 µM
Activity calls are given as the source filed them. The call rests on the fitted dose curve; in most records, active means well fitted curve in the direction sought with a large enough effect in the repeat runs; inconclusive means weak or mixed curves; inactive means flat fitted curve, though single readings scatter.
assay-metric: outcome

CCOC(=O)[C@H](CS)NCCN[C@@H](CS)C(=O)OCC | inactive
CC(C)C[C@H](NC(=O)[C@@H](Cc1c[nH]c2ccccc12)NC(=O)[C@H](Cc1ccc(O)cc1)NC(=O)[C@H](CO)NC(=O)[C@H](Cc1c[nH]c2ccccc12)NC(=O)[C@H](Cc1cnc[nH]1)NC(=O)[C@@H]1CCC(=O)N1)C(=O)N[C@@H](CCCN=C(N)N)C(=O)N1CCC[C@@H]1C(=O)NCC(N)=O | inactive
COc1ccc(CC2c3cc(OC)c(OC)cc3CC[N+]2(C)CCC(=O)OCCCCCOC(=O)CC[N+]2(C)CCc3cc(OC)c(OC)cc3C2Cc2ccc(OC)c(OC)c2)cc1OC (stereo not drawn) | inactive

====

experiment: qHTS assay for small molecule agonists of the p53 signaling pathway (AID 651631); conditions: HCT-116 p53RE-bla reporter, beta-lactamase FRET ratio, 16 h; series mostly up to 73.3 µM; also: nearly all actives have a fitted effect of over 15% in size
Inconclusive results are not listed. Active and inactive are the calls of the source. The call rests on the fitted dose curve.
Response enum: true (1) = active, false (0) = inactive

Solved cases below.
Cc1ccccc1OCC(O)CNCCOc1ccc(C(N)=O)cc1 (stereo unspecified) | false (0)
CC(=O)N[C@@H]1C(O[C@H]2O[C@H](C(=O)O)C(O)[C@H](O)[C@H]2O)[C@H](O)[C@@H](CO)O[C@H]1O[C@@H]1C(C(=O)O)O[C@@H](O[C@H]2[C@H](O)[C@@H](CO)OC(O)[C@@H]2NC(C)=O)[C@H](O)[C@H]1O (stereo partly specified) | false (0)
OC[C@H]1O[C@@H](O[C@H]2[C@H](O)[C@@H](O)[C@H](O)O[C@@H]2CO)[C@H](O)[C@@H](O)[C@@H]1O | false (0)
CC(C)CN(C[C@@H](OP(=O)(O)O)[C@H](Cc1ccccc1)NC(=O)O[C@H]1CCOC1)S(=O)(=O)c1ccc(N)cc1 | false (0)
C[C@]12CC[C@@H]3c4ccc(OS(=O)(=O)O)cc4CC[C@H]3[C@@H]1CCC2=O | false (0)
COc1cc(C)c(/C=C/C(C)=C/C=C/C(C)=C/C(=O)O)c(C)c1C | true (1)
CCCCCCCCCCCCCCCC(=O)OC[C@@H](COP(=O)([O-])OCC[N+](C)(C)C)OC(=O)CCCCCCCCCCCCCCC | false (0)
CC(C)[C@@H](N)C(=O)O | false (0)

Hi team, can someone confirm the assay call for CC(C)CN(C[C@@H](O)[C@H](Cc1ccccc1)NC(=O)O[C@H]1CO[C@H]2OCC[C@H]21)S(=O)(=O)c1ccc(N)cc1 ?
false (0)

Which outcome did this test record for the compound CO/N=C(\C(=O)N[C@@H]1C(=O)N2C(C(=O)O)=C(CSC(=O)c3ccco3)CS[C@H]12)c1csc(N)n1 ?
false (0)

Outcome logged for NC[C@@H]1O[C@H](O[C@H]2[C@@H](O)[C@H](O[C@@H]3[C@@H](O)[C@H](N)C[C@H](N)[C@H]3O[C@H]3O[C@H](CO)[C@@H](O)[C@H](O)[C@H]3N)O[C@@H]2CO)[C@H](N)[C@@H](O)[C@@H]1O in this assay:
false (0)

Hi team, can someone confirm the assay call for CC1(O)CCC(C(C)(C)O)CC1 (stereo unspecified) ?
false (0)
